- Target Desc: ACAT (Rattus norvegicus)
- Construct: Rat liver microsomes are used as the source of ACAT; from tissue; host or cells: rat liver microsomes
- Sequence (Q7TQM4 whole entry): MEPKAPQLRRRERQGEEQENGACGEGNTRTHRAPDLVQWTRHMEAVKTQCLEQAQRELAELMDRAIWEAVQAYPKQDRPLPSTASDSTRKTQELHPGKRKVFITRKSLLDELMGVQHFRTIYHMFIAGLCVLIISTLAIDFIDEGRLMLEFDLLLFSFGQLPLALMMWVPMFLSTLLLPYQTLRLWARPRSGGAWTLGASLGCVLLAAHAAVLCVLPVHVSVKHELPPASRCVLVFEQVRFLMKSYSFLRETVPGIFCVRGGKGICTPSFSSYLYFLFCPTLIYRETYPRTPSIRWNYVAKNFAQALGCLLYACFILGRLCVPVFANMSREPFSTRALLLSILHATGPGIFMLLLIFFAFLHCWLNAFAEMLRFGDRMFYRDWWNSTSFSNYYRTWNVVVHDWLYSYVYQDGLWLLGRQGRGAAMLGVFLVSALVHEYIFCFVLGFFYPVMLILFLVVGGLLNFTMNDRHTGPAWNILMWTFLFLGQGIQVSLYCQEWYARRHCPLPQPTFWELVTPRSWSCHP
- Test Summary: ACAT Assay (in vitro), transfer of tritiated oleic acid from acyl-CoA to cholesterol, rat liver microsomes
- Type: biochemical
- Condition Details: 10 μM, read-out: % ACAT Inhib. @10 μM
Measurement Name: inhibition at 10 µM (%)

Observe how each entry below is paired with its result.
compound="O=C(NC(CN1CCOCC1)c1ccccc1)C(c1ccccc1)c1ccccc1 (stereo not drawn)" unit_string=% value_measured=94
compound="CCCCCCCC/C=C\\CCCCCCCC(=O)NC(CN1CCC(OC)CC1)c1ccccc1 (stereo not drawn)" unit_string=% value_measured=93
compound="CCCCCCCC/C=C\\CCCCCCCC(=O)NC(CN1CCC(NC(=O)C(F)(F)F)CC1)c1ccccc1 (stereo not drawn)" unit_string=% value_measured=90
compound="CCCCCCCC/C=C\\CCCCCCCC(=O)NC(CN1CCC2(CCCC2)CC1)c1ccccc1 (stereo not drawn)" unit_string=% value_measured=59

I = CC(=O)CC(=O)OC1CCN(CC(NC(=O)C(c2ccccc2)c2ccccc2)c2ccccc2)CC1 (stereo not drawn)
II = CCCCCCCCCCCCCC(=O)NC(CN1CCN(C)CC1)c1ccccc1 (stereo not drawn)
In: Problem: Given the entries I and II , determine which has the lower reported inhibition at 10 µM. Kindly give the label for the entry you pick.
Out: I
(I: 53%, II: 81%)

----------
- Tested on: liver cholesterol esters
- Test Summary: In Vivo Assay of Hypolipidemic Agents Using the Hyperlipidemic Hamster
- Condition Details: Mesocricetus auratus, 168 h; 50 mpk, oral gavage in corn oil once daily, seven days; 0.5% cholesterol diet; percent reduction versus control; read-out: In Vivo 50 mpk % Redn. L/CE
Measurement Name: change in vivo at 50 mg/kg (%)
Write the answer as a number in %, unit excluded.

Observe how each entry below is paired with its result.
molecule="CCCCCCCC/C=C\\CCCCCCCC(=O)NC(CN1CCC(OC)CC1)c1ccccc1 (stereo not shown)" unit_string=% value_measured=-24
molecule="CCCCCCCC/C=C\\CCCCCCCC(=O)NC(CN1CCC2(CC1)OCCO2)c1ccccc1 (stereo not shown)" unit_string=% value_measured=-35
molecule="CCCCCCCCCCCCCCCC(=O)NC(CN1CCN(C)CC1)c1ccccc1 (stereo not shown)" unit_string=% value_measured=-60
molecule="CCCCCCCC/C=C\\CCCCCCCC(=O)NC(Cc1ccccc1)C1CCCCC1 (stereo not shown)" unit_string=% value_measured=0
molecule="O=C(NC(CN1CCC(=NO)CC1)c1ccccc1)C(c1ccccc1)c1ccccc1 (stereo not shown)" unit_string=% value_measured=0

In: Which measured change in vivo at 50 mg/kg value corresponds to CN1CCN(CC(NC(=O)C(c2ccccc2)c2ccccc2)c2ccccc2)CC1 (stereo not shown) ?
Out: -39

In: Which measured change in vivo at 50 mg/kg value corresponds to CN1CCN(CC(NC(=O)CCCCCCCCCCOc2ccccc2)c2ccccc2)CC1 (stereo not shown) ?
Out: 0

In: Which measured change in vivo at 50 mg/kg value corresponds to CC(=O)OC1CCN(CC(NC(=O)C(c2ccccc2)c2ccccc2)c2ccccc2)CC1 (stereo not shown) ?
Out: -25

In: Which measured change in vivo at 50 mg/kg value corresponds to CCCCCCCC/C=C\CCCCCCCC(=O)NC(CN1CCOCC1)c1ccccc1 (stereo not shown) ?
Out: -21

In: Which measured change in vivo at 50 mg/kg value corresponds to COC1CCN(CC(NC(=O)C(c2ccccc2)c2ccccc2)c2ccccc2)CC1 (stereo not shown) ?
Out: -30

In: Which measured change in vivo at 50 mg/kg value corresponds to CCCCCCCCCCCCCCCC(=O)NC(CN1CCC2(CC1)OCCO2)c1ccccc1 (stereo not shown) ?
Out: -19

In: Which measured change in vivo at 50 mg/kg value corresponds to CCCCCCCCCCCCCCCC(=O)NC(C(=O)N1CCN(C)CC1)c1ccccc1 (stereo not shown) ?
Out: -17

In: Which measured change in vivo at 50 mg/kg value corresponds to CCCCCCCC/C=C\CCCCCCCC(=O)NC(CN1CCC(N)CC1)c1ccccc1 (stereo not shown) ?
Out: -59

Numbers sourced from patent US5607931A.
